Assay: label from the status in PepcDB records
Readout Kind: protein production

Query Sequence: MRVYDMHVHLHEYSDREVEEILDADKSLVVVAVSDDLESAWRTLDLWHTFGGRVVPCLGFHPWNVREGRVWEAWEVLRLAYRYGVPCLGEVGLDRRFVDEYTWRVQNEVFDAFVQLAEDMGVMLNIHAPDAWKHVAHRIGWTSRARFMYHWYTGPATLPRALPEGRVWFSINSAIRVQEKSVRVAREIPLRSLVVESDGPYNYRGLRLSPLMVRETVKLVAEARGEDPGRLMEAISLNSERLLGLL
Value: failed
--
Query Sequence: MMDSCIRIAGIIGESIVDGPGIRLVVFAQGCPHHCPGCHNPETHAYEGGKSVAIAEILQRLAMNPLLDGITLSGGEPFAQAAGFALLAQSARQRGFHVMTYSGYTYEELTASSEQNPAWALLLEQTDLLVDGPFQLAERNLLLPFRGSENQRVIDVQESLRQGKVVLASVLEHHHHHH
Value: failed

----------
Assay: label from the status in PepcDB records

Query Sequence: MVVSIGVFDGVHIGHQKVLRTMKEIAFFRKDDSLIYTISYPPEYFLPDFPGLLMTVESRVEMLSRYARTVVLDFFRIKDLTPEGFVERYLSGVSAVVVGRDFRFGKNASGNASFLRKKGVEVYEIEDVVVQGKRVSSSLIRNLVQEGRVEEIPAYLGRYFEIEGIVHKDREFGRKLGFPTANIDRGNEKLVDLKRGVYLVRVHLPDGKKKFGVMNVGFRPTVGDARNVKYEVYILDFEGDLYGQRLKLEVLKFMRDEKKFDSIEELKAAIDQDVKSARNMIDDIINSKFEKEG
protein production: not failed

Query Sequence: SSKELLMKLRRKTGYSFVNCKKALETCGGDLKQAEIWLHKEAQKEGWSKAA
protein production: not failed

----------
Assay: label from the status in PepcDB records
Readout Kind: protein production

Query Sequence: MLTYYLKTEIQLLFRKKVYLVLSILVPLALYLLFTSILDLPEEAKKPFYKEYMYSMTAFSLSSFCLMQFPIDLINEKTTGWYKNLMRTPLQSHQYYMAKVFKMMFQFILAILLIFIVAHFMKGVEMSTSDWLLSGLILWIGASTFLSVGVLISQINEIQKASSIGNILYLSLAILGGLWFPVSQFPEWMRKIAYVTPTYHLKQVAYEIGKGGTLDYLSLFVLVGYSILFLVVALIIQKRRDVDI
Value: failed

Query Sequence: DVREFQPENFARFHPGGSLGRRLLSKVQDEMFSDNIPSVASDADFTSIIHKISSSHLGLTLVNLKDDSLAIITDGDLRRAMESKGRDAFDLVAKDIASINPASISPESNIQKAYEIMESKGITSLIVVESNSVVGIL
Value: failed

Query Sequence: MAHGIPSQGKVTITVDEYSSNPTQAFTHYNINQSRFQPPHVHMVDPIPYDTPKPAGHTRFVCISDTHSRTDGIQMPYGDILLHTGDFTELGLPSEVKKFNDWLGNLPYEYKIVIAGNHELTFDKEFMADLVKQDYYRFPSVSKLKPEDFDNVQSLLTNSIYLQDSEVTVKGFRIYGAPWTPWFNGWGFNLPRGQSLLDKWNLIPEGIDILMTHGPPLGFRDWVPKELQRVGCVELLNTVQRRVRPKLHVFGGIHEGYGIMTDGYTTYINASTCTVSFQPTNPPIIFDLPNPQGS
Value: failed

----------
Assay: label from the status in PepcDB records
Readout Kind: protein production

Query Sequence: MNKVLINDTTLRDGEQAAGVVFTLEEKVAIAKFLDTIGVPELEVGIPAMGEEEMRAICAISNLGLKANLLAWNRAVISDIKASVACGMERVHIAIPVSGIQIAAKFHGQWRVSLQRLKDCISFAVDQGLWVAVGGEDSSRADENFLLDVALYAQEWGASRFRFCDTVGVLDPFTTYGKVKLLVSALTIPVEVHTHNDFGMATANALAGIKAGASSVNTTVIGLGERAGNAALEEVVMAIKRIYGVDMGIDTPRLLELSQLVAAASGANVPPWKAIVGENTFAHESGIHAHGVLQNPDTYEPFAPEEVGWERRLVVGKHSGRHSVSNLLEQHGIFLNPEETQSVLDAVRQQSIKKKRSLTTEELLNLVKEQRYSHAAR
Value: failed
--
Query Sequence: MWRVRCKAKGGTHLLQGLSSRTRLRELQGQIAAITGIAPGSQRILVGYPPECLDLSDRDITLGDLPIQSGDMLIVEEDQTRPKASP
Value: not failed
--
Query Sequence: MDIKSETEQYKRKAEIEKHTKEPNKHRDEAVLQNRAGRHRDRAVIDHKSEERERESVQNVTEMSGIERSEGEWSPPVEGITDEELPSHSPMDDLGFALFASWGRKTERQRMGSPDIRIYIFNPIKKIIIMETRIRFGLEWKPSGFGS
Value: failed
--
Query Sequence: MEKYPEIQQMRSKMREGDDTNEFKIRPLKGLSHPSGNLQMQRFQEDRRERIHSIRKRENQDGRLDLIGVVGEITVVIDDVVYEEEKLRKVVFTMKG
Value: not failed
--
Query Sequence: VDEPESMVNLAFVKNDSYEKGPDSVVVHVYVKEICRDTSRVLFREQDFTLIFQTRDGNFLRLHPGCGPHTTFRWQVKLRNLIEPEQCTFCFTASRIDICLRKRQSQRWGGLEAPAARVGGA
Value: not failed
--
Query Sequence: PTPKTELVQKFRVQYLGMLPVDRPVGMDTLNSAIENLMTSSSKEDWPSVNMNVADATVTVISEKNEEEVLVECRVRFLSFMGVGKDVHTFAFIMDTGNQRFECHVFWCEPNAANVSEAVQAACSGPSSGIEGRGSSGSSGSSGSSGDAAVTPEERHLSKMQQNGYENPTYKFFEQMQN
Value: not failed
--
Query Sequence: PPLYVPEQLVVHKETHQAHVMIGSRGYNAYDDKRTALYLLNNILGGPGMNSRLNVSLRERRGLVYTVESNLTSYTDTGAFCIYFGTDPEDVDTCLKLTYKELKRMRDVKMTSSQLMAAKKQLIGQIGVASDNNENNALGMAKTFLHYNKYESSESVFRRIEALTAEGLLEVANEMFAEEYLSTLIY
Value: failed
--
Query Sequence: MNSVVDISWAKLAAFSLILLVPLAINARYRLGIAKDASVSVVRMTLQLVLIGVYLEYLFQLNSLIINLLWLAIMLVVGASSIAGKARLPKKPLMLPLLTGLVCGLFPLLIAITAGLVRPTPLYNAQYMIPLAGMLLGNSLSSNIIALQNLFSAFEERKSEYEAAISLGAAPKYASFPFVQEALRKSLAPTLASMTTMGLVTLPGMMTGQVLGGASPLVAIKYQLVIMLAIFVMMSVSVAITLEMTLSFVQTKEGRVTVKVRPVDGMKRGQ
Value: failed
--
Query Sequence: MQFIEKIGIVLATYNPNLEYFEKQIQSIKQQSWKNWVCHIVDDCSHSEYQVGIKNIIDNDPRFICHFHSHNLNHYYNFERGLKYCAQDKSITAISLADQDDIWHDDKLKILLKKLRSQKAVLIHSDLELINSYDQTIHPSAWDFEGRKPHKLSHDLLLLRNVVTGCSVLFCTSLLTDVLPFPPQNKISWYHDWWIALVASHRGKIVHIHKPLVWYRIHNANNVGVLKDSGKIHCELLLLCRKKFKINGNSYLVHRDFSKAFYRRFKRELNELGYTNPFDDRKLDFGWHILKLLYKSLLVGYNSEGAALRIGVLKLIFDIQRSYRIILYHCLKTFKSYYKNSQ
Value: failed
--
Query Sequence: GLIDESEQRLVDNIFEFEEKKIREIMVPRTDMVCIYESDSEEKILAILKEEGVTRYPVCRKNKDDILGFVHIRDLYNQKINENKIELEEILRDIIYISENLTIDKALERIRKEKLQLAIVVDEYGGTSGVVTIEDILEEIVGEIQ
Value: not failed
--
Query Sequence: MKRDVLYNRIILSVFLLSLVSCVAIYYAQQTNQYNTNFLGMQLVFLAIGTLTCFGVSRLPVEFLRHHAIWLYVIMVITLLGILIPNPLVQNINGATRWYRFAGLSFQPSEVVKSIFIFVLAHFAVKYQAQKWKQLGILTVLTGIVLLLIMKQPDLGTTIVYGVTALAIILLAIKSTKLMVGIITLILTAATVGMYVVVYHISLLEKIGFHAYQFSRIQTWLDPTTDPDAVYQLNLSMKAVGSGMMTGSSGTNAYIPESHTDMIFSTIGHQFGFVGVSLLLILFMVLIHQLIMAALLMKNTFSSLVLAGFAVSFAFNIFENIGMTVGLMPLTGIPLPFISYGGSAVLGNFIAVGVVLAIIRSDADLIEEK
Value: failed
--
Query Sequence: MAGGGNRRDEGSITIQSTNLFAALDTRKKKKKSDKAGKSKGSSKSREPEKEPEPQVYWAPTPLKVKSWADIDDEDDDDDYYATTAPPQSGWSTSLPSHTDSKDVHVEESESEEDILDEGDDDVEEEQEQETEVQVHPEPEVKKAPEVPAPPKEAERQLSKKERKKKELAELEALLADFGVAPKENNGLEESQEAGQEKKEDVNGEGEKKENAAGGESKASKKKKKKDKQKEVKESQEQQANNNADAVDEAAGSEPTEEESPIDVKERIKKLASMKKKKSGKEVDAAAKAAAEEAAARRKKLAAAKKKEKNHYNQQPVR
Value: failed
--
Query Sequence: MLPIWFLIVIILKSVEFVITSFFLRDISKEMIFFSDLLGRIIVIIFYVLPIATYISVMFSQFLYLFIIHIFLYIICFMAFVSSALRIKRCIH
Value: failed
